target: Adenosine A2 receptor (Rattus norvegicus, UniProt P29276+P30543); test: Tested for inhibition of adenosine A2 receptor binding to rat brain
REPORTED_PROPERTY: Ki (nM)

A selection of reference data follows.
[[record]]
compound = "OC[C@H]1O[C@@H](n2cnc3c(NN4CCCC(O)C4)nc(Cl)nc32)[C@H](O)[C@@H]1O (mixture of isomers)"
reported_property = "Ki"
experimental_result = 720

[[record]]
compound = "OC[C@H]1O[C@@H](n2cnc3c(NN4CCC(c5ccccc5)CC4)nc(Cl)nc32)[C@H](O)[C@@H]1O"
reported_property = "Ki"
experimental_result = 1200

[[record]]
compound = "CCCOc1nc(NN2CCCCC2)c2ncn([C@@H]3O[C@H](CO)[C@@H](O)[C@H]3O)c2n1"
reported_property = "Ki"
experimental_result = 2700

[[record]]
compound = "OC[C@H]1O[C@@H](n2cnc3c(NN4CCCCC4)nc(F)nc32)[C@H](O)[C@@H]1O"
reported_property = "Ki"
experimental_result = 1050

[[record]]
compound = "OC[C@H]1O[C@@H](n2cnc3c(NN4CCC(Sc5ccccc5)CC4)nc(Cl)nc32)[C@H](O)[C@@H]1O"
reported_property = "Ki"
experimental_result = 470


(a) Nc1nc(NN2CCCCC2)c2ncn([C@@H]3O[C@H](CO)[C@@H](O)[C@H]3O)c2n1
(b) OC[C@H]1O[C@@H](n2cnc3c(NN4CCC(Oc5ccccc5)CC4)nc(Cl)nc32)[C@H](O)[C@@H]1O
Return label of the item with the larger Ki. Candidates: a , b . Write down the label attached to your selection.
a
(a: 3320 nM, b: 1100 nM)

(A) CC1CCCC(C)N1Nc1nc(Cl)nc2c1ncn2[C@@H]1O[C@H](CO)[C@@H](O)[C@H]1O (some centres not stated)
(B) OC[C@H]1O[C@@H](n2cnc3c(NN4CCCCC4)nc(Cl)nc32)[C@H](O)[C@@H]1O
Return label of the item with the larger Ki. Candidates: A , B . Write down the label attached to your selection.
B

====

target: Adenosine A2 receptor (Rattus norvegicus, UniProt P29276+P30543); assay: Tested for inhibition of adenosine A2 receptor binding to rat brain
REPORTED_PROPERTY: Ki (nM)

A selection of reference data follows.
[[record]]
compound = "OC[C@H]1O[C@@H](n2cnc3c(NN4CC=C(c5ccccc5)CC4)nc(Cl)nc32)[C@H](O)[C@@H]1O"
units_text = "nM"
experimental_result = 638

[[record]]
compound = "COC[C@@H]1CCCN1Nc1nc(Cl)nc2c1ncn2[C@@H]1O[C@H](CO)[C@@H](O)[C@H]1O"
units_text = "nM"
experimental_result = 564

[[record]]
compound = "OC[C@H]1O[C@@H](n2cnc3c(NN4CCCC(Oc5ccccc5)C4)nc(Cl)nc32)[C@H](O)[C@@H]1O (mixture of isomers)"
units_text = "nM"
experimental_result = 1733

[[record]]
compound = "OC[C@H]1O[C@@H](n2cnc3c(NC4CCCC4)ncnc32)[C@H](O)[C@@H]1O [N6-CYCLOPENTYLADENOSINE]"
units_text = "nM"
experimental_result = 321

[[record]]
compound = "O=S(=O)(c1ccccc1)C1CCN(Nc2nc(Cl)nc3c2ncn3[C@@H]2O[C@H](CO)[C@@H](O)[C@H]2O)CC1"
units_text = "nM"
experimental_result = 220


(P) CSc1nc(NN2CCCCC2)c2ncn([C@@H]3O[C@H](CO)[C@@H](O)[C@H]3O)c2n1
(Q) OC[C@H]1O[C@@H](n2cnc3c(NN4CCCCCC4)nc(Cl)nc32)[C@H](O)[C@@H]1O
Return label of the item with the larger Ki. Candidates: P , Q . Write down the label attached to your selection.
P
